# measured.target: SHP2 (Homo sapiens (Human))
# test.method.notes: SHP2 allosteric inhibition assay (DiFMUP prompt fluorescence)
# condition.context: 0.5 nM SHP2 activated with 0.5 μM peptide IRS1_pY1172(dPEG8)pY1222; substrate DiFMUP; 25° C.
pIC50: −log10 of the molar value.
property.name: pIC50

a = Cc1ccccc1Sc1c(N)nc(N2CCC(C)(CN)CC2)n(C)c1=O
b = Cn1c(N2CCC(C)(CN)CC2)ncc(Sc2cccc(Cl)c2Cl)c1=O
c = CC(C)c1ccc(-c2c(N)nc(N3CCC4(CC3)CO[C@@H](C)[C@H]4N)n(C)c2=O)cc1
d = C[C@@H]1OCC2(CCN(c3nc(N)c(-c4ccc(OCC5CC5)cc4)c(=O)n3C)CC2)[C@@H]1N
e = C[C@@H]1OCC2(CCN(c3nc(N)c(-c4ccc(N5CCOCC5)cc4)c(=O)n3C)CC2)[C@@H]1N
Asked: Highest to lowest pIC50: rank the entries shown above. Quick reminder: the answer is the labels in the order asked.
Given back: c, d, b, a, e

1 = C[C@@H]1OCC2(CCN(c3nc(N)c(Sc4cccc(N)c4C(F)(F)F)c(=O)n3C)CC2)[C@@H]1N
2 = Cn1c(N2CCC(C)(CN)CC2)ncc(Sc2ccnc(Cl)c2Cl)c1=O
3 = Cn1c(N2CCC3(CC2)COC[C@H]3N)nc(N)c(-c2ccccc2)c1=O
4 = C[C@H]1C[C@@H](N)C2(CCN(c3nc(N)c(-c4cccc(F)c4F)c(=O)n3C)CC2)C1
Asked: Could you please order the items by pIC50, going from the lowest number to the highest? Quick reminder: the answer is the labels in the order asked.
Given back: 2, 3, 1, 4

a = C[C@@H]1OCC2(CCN(c3nc(N)c(Sc4ccnc(N5CCCC5)c4Cl)c(=O)n3C)CC2)[C@@H]1N
b = COc1ccccc1Sc1c(N)nc(N2CCC(C)(CN)CC2)n(C)c1=O
c = COc1cccc(Sc2c(N)nc(N3CCC(C)(CN)CC3)n(C)c2=O)c1Cl
Asked: Could you please order the items by pIC50, going from the lowest number to the highest? Quick reminder: the answer is the labels in the order asked.
Given back: b, c, a

I = C[C@@H]1OCC2(CCN(c3nc(N)c(-c4cccc(F)c4)c(=O)n3C)CC2)[C@@H]1N
II = Cn1c(N2CCC(C)(CN)CC2)nc(N)c(Sc2ccccc2C(F)(F)F)c1=O
III = CC[C@@H]1OCC2(CCN(c3nc(N)c(Sc4ccnc(C)c4Cl)c(=O)n3C)CC2)[C@@H]1N
IV = C[C@@H]1OCC2(CCN(c3nc(N)c(-c4ccc(Cl)c(Cl)c4)c(=O)n3C)CC2)[C@@H]1N
Asked: // ranking: key=pIC50, reverse=True Quick reminder: the answer is the labels in the order asked.
Given back: III, I, II, IV
(III: 7.66, I: 7.36, II: 7.13, IV: 6.51)

P = Cn1c(N2CCC3(CC2)C[C@@H](C(F)(F)F)C[C@H]3N)nc(N)c(-c2ccccc2)c1=O
Q = Cn1c(N2CCC3(CC2)COC[C@H]3N)ncc(Sc2cccc(Cl)c2Cl)c1=O
R = C[C@H]1C[C@@H](N)C2(CCN(c3nc(N)c(-c4cccc(Cl)c4Cl)c(=O)n3C)CC2)C1
Asked: // ranking: key=pIC50, reverse=True Quick reminder: the answer is the labels in the order asked.
Given back: R, Q, P
(R: 7.85, Q: 7.43, P: 7.20)

A = CC1(CN)CCN(c2ncc(Sc3cccc(Cl)c3Cl)c(=O)[nH]2)CC1
B = Cn1c(N2CCC(C)(CN)CC2)nc(N)c(Sc2ccccc2Cl)c1=O
C = Cn1c(N2CCC3(CC2)CC(F)(F)C[C@H]3N)nc(N)c(Sc2ccc(F)cc2Cl)c1=O
Asked: Could you please order the items by pIC50, going from the lowest number to the highest? Quick reminder: the answer is the labels in the order asked.
Given back: B, A, C
(B: 6.54, A: 7.19, C: 7.60)

A = C[C@@H]1OCC2(CCN(c3nc(N)c(-c4ccc(N(C)C)cc4)c(=O)n3C)CC2)[C@@H]1N
B = C[C@@H]1OCC2(CCN(c3nc(N)c(Sc4ccnc(N)c4Cl)c(=O)n3C)CC2)[C@@H]1N
Asked: Out of A and B , name the one with the higher pIC50. Selection: enter the item's label.
Given back: B

P = C[C@@H]1OCC2(CCN(c3nc(N)c(-c4ccc(C5CCOCC5)cc4)c(=O)n3C)CC2)[C@@H]1N
Q = C[C@@H]1OCC2(CCN(c3nc(N)c(-c4ccc(C5CC5)cc4)c(=O)n3C)CC2)[C@@H]1N
R = Cn1c(N2CCC3(CC2)COC[C@H]3N)nc(N)c(Sc2ccnc(N)c2Cl)c1=O
S = Cn1c(N2CCC(C)(CN)CC2)nc(N)c(Sc2cccnc2C(F)(F)F)c1=O
Asked: Could you please order the items by pIC50, going from the lowest number to the highest? Quick reminder: the answer is the labels in the order asked.
Given back: P, S, Q, R

----------
# measured.target: SHP2 (Homo sapiens (Human))
# test.method.notes: SHP2 allosteric inhibition assay (DiFMUP prompt fluorescence)
# condition.context: 0.5 nM SHP2 activated with 0.5 μM peptide IRS1_pY1172(dPEG8)pY1222; substrate DiFMUP; 25° C.
property.name: IC50 (nM)

C[C@@H]1OCC2(CCN(c3nc(N)c(-c4cc(Cl)cc(Cl)c4Cl)c(=O)n3C)CC2)[C@@H]1N [Example 180]
515

A = Cn1c(N2CCC(C)(CN)CC2)nc(N)c(Sc2cccc3c2OC(F)(F)O3)c1=O [Example 50]
B = Cn1c(N2CCC3(CC2)C[C@H](F)C[C@H]3N)nc(N)c(Sc2ccnc(N)c2Cl)c1=O [Example 36]
C = Cn1c(N2CCC(C)(CN)CC2)ncc(Sc2cccnc2C(F)(F)F)c1=O [Example 100]
Asked: // ranking: key=IC50, reverse=True Quick reminder: the answer is the labels in the order asked.
Given back: C, A, B

----------
# measured.target: SHP2 (Homo sapiens (Human))
# test.method.notes: SHP2 allosteric inhibition assay (DiFMUP prompt fluorescence)
# condition.context: 0.5 nM SHP2 activated with 0.5 μM peptide IRS1_pY1172(dPEG8)pY1222; substrate DiFMUP; 25° C.
property.name: IC50 (nM)

C[C@@H]1OCC2(CCN(c3nc(N)c(-c4ccc(OC5CC5)cc4)c(=O)n3C)CC2)[C@@H]1N
25
Cn1c(N2CCC3(CC2)CC(F)(F)C[C@H]3N)nc(N)c(-c2ccccc2)c1=O
44

P = C[C@@H]1OCC2(CCN(c3ncc(Sc4cc(N)nc(Cl)c4Cl)c(=O)n3C)CC2)[C@@H]1N
Q = C[C@@H]1OCC2(CCN(c3nc(N)c(-c4cccc(C(F)(F)F)c4)c(=O)n3C)CC2)[C@@H]1N
R = Cn1c(N2CCC3(CC2)C[C@H](F)C[C@H]3N)nc(N)c(-c2cccc(Cl)c2Cl)c1=O
S = C[C@@H]1OCC2(CCN(c3nc(N)c(-c4ccccn4)c(=O)n3C)CC2)[C@@H]1N
T = COc1ccc(Sc2c(N)nc(N3CCC4(CC3)CO[C@@H](C)[C@H]4N)n(C)c2=O)cc1F
Asked: // ranking: key=IC50, reverse=True Quick reminder: the answer is the labels in the order asked.
Given back: Q, S, T, R, P

----------
# measured.target: SHP2 (Homo sapiens (Human), UniProt Q06124)
# test.method.notes: SHP2 allosteric inhibition assay (DiFMUP prompt fluorescence)
# condition.context: 0.5 nM SHP2 activated with 0.5 μM peptide IRS1_pY1172(dPEG8)pY1222; substrate DiFMUP; 25° C.
pIC50: −log10 of the molar value.
property.name: pIC50

C[C@@H]1OCC2(CCN(c3nc(N)c(-c4ccccc4)c(=O)n3C)CC2)[C@@H]1N
7.62

1 = COc1ccc(-c2c(N)nc(N3CCC4(CC3)CO[C@@H](C)[C@H]4N)n(C)c2=O)cc1C
2 = Cn1c(N2CCC3(CC2)CC(F)(F)C[C@H]3N)nc(N)c(Sc2ccccc2Cl)c1=O
3 = C[C@H]1C[C@@H](N)C2(CCN(c3nc(N)c(-c4cccc(Cl)c4)c(=O)n3C)CC2)C1
Asked: Could you please order the items by pIC50, going from the lowest number to the highest? Quick reminder: the answer is the labels in the order asked.
Given back: 1, 2, 3

----------
# measured.target: SHP2 (Homo sapiens (Human))
# test.method.notes: SHP2 allosteric inhibition assay (DiFMUP prompt fluorescence)
# Format: biochemical
# condition.context: 0.5 nM SHP2 activated with 0.5 μM peptide IRS1_pY1172(dPEG8)pY1222; substrate DiFMUP; 25° C.
property.name: IC50 (µM)

Some entries whose results are on file:
C[C@@H]1OCC2(CCN(c3ncc(-c4cccc(Cl)c4Cl)c(=O)[nH]3)CC2)[C@@H]1N
3.34
C[C@@H]1OCC2(CCN(c3nc(N)c(Sc4cccnc4OC(F)(F)F)c(=O)n3C)CC2)[C@@H]1N
0.108
Cn1c(N2CCC3(CC2)CC(F)(F)C[C@H]3N)nc(N)c(Sc2cccnc2C(F)(F)F)c1=O
0.018
C[C@@H]1OCC2(CCN(c3nc(N)c(-c4cccc(F)c4F)c(=O)n3C)CC2)[C@@H]1N
0.028
C[C@@H]1OCC2(CCN(c3nc(N)c(-c4ccc(F)cc4F)c(=O)n3C)CC2)[C@@H]1N
0.048

A = Cn1c(N2CCC(C)(CN)CC2)ncc(Sc2ccccc2C(F)(F)F)c1=O
B = COc1nccc(Sc2ccc(N3CCC4(CC3)CO[C@@H](C)[C@H]4N)[nH]c2=O)c1Cl
Asked: Lower IC50: A or B ? Selection: enter the item's label.
Given back: B
(B: 0.083 µM, A: 0.5 µM)

P = Cn1c(N2CCC(C)(CN)CC2)nc(N)c(Sc2cccc3ccccc23)c1=O
Q = C[C@@H]1OCC2(CCN(c3ncc(Sc4ccnc(NC5CC5)c4Cl)c(=O)n3C)CC2)[C@@H]1N
R = C[C@H]1C[C@@H](N)C2(CCN(c3nc(N)c(-c4ccccc4)c(=O)n3C)CC2)C1
Asked: // ranking: key=IC50, reverse=True Quick reminder: the answer is the labels in the order asked.
Given back: Q, P, R
(Q: 0.146 µM, P: 0.045 µM, R: 0.025 µM)

a = Cc1ccc(-c2c(N)nc(N3CCC4(CC3)CO[C@@H](C)[C@H]4N)n(C)c2=O)cc1Cl
b = C[C@@H]1OCC2(CCN(c3nc(N)c(-c4ccc(F)c(Cl)c4)c(=O)n3C)CC2)[C@@H]1N
c = C[C@@H]1OCC2(CCN(c3nc(N)c(-c4ccc(Cl)c(F)c4)c(=O)n3C)CC2)[C@@H]1N
d = Cn1c(N2CCC(C)(CN)CC2)nc(N)c(Sc2cccc(C#N)c2)c1=O
e = CC1(CN)CCN(c2ccc(Sc3cccc(Cl)c3Cl)c(=O)[nH]2)CC1
Asked: Could you please order the items by IC50, going from the lowest number to the highest? Quick reminder: the answer is the labels in the order asked.
Given back: a, c, b, e, d
